biological target: Substance-P receptor (Homo sapiens, UniProt P25103); assay: Binding affinity against human Tachykinin receptor 1 expressed in astrocytoma UC11MG cells using [125I]- SP radioligand; type: cell-based
Sequence (P25103 whole entry): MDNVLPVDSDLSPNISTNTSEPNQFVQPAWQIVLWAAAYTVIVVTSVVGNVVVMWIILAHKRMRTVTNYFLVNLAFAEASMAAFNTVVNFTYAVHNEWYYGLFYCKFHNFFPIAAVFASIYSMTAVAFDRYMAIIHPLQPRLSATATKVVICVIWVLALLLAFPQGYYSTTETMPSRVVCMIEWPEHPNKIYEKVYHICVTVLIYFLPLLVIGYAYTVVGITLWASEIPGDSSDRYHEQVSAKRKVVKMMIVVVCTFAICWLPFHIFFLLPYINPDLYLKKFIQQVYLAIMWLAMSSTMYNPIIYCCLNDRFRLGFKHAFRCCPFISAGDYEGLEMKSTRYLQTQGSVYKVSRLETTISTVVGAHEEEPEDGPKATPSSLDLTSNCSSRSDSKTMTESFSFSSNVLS
pIC50: −log10 of the molar value.
Everything with pIC50 lower than 10 is N; everything else, including exactly 10, is Y.

Decide: is the reported value of pIC50 for "O=C(NCc1cc(C(F)(F)F)cc(C(F)(F)F)c1)c1c(CBr)nc2ccccc2c1-c1ccccc1" equal to or greater than 10?
Y

Decide: is the reported value of pIC50 for "O=C(NCc1cc(C(F)(F)F)cc(C(F)(F)F)c1)c1c(CO)nc2ccccc2c1-c1ccccc1" equal to or greater than 10?
Y

Decide: is the reported value of pIC50 for "CN(Cc1cc(C(F)(F)F)cc(C(F)(F)F)c1)C(=O)c1cnc2ccccc2c1-c1ccccc1" equal to or greater than 10?
Y

Decide: is the reported value of pIC50 for "CN(Cc1cc(C(F)(F)F)cc(C(F)(F)F)c1)C(=O)c1c(CBr)nc2ccccc2c1-c1ccccc1" equal to or greater than 10?
N

Decide: is the reported value of pIC50 for "CN(C)Cc1nc2ccccc2c(-c2ccccc2)c1C(=O)NCc1cc(C(F)(F)F)cc(C(F)(F)F)c1" equal to or greater than 10?
N

Decide: is the reported value of pIC50 for "COCc1nc2ccccc2c(-c2ccccc2)c1C(=O)N(C)Cc1cc(C(F)(F)F)cc(C(F)(F)F)c1" equal to or greater than 10?
N

Decide: is the reported value of pIC50 for "Ic1ccccc1CN[C@@H]1C2CCN(CC2)[C@@H]1C(c1ccccc1)c1ccccc1" equal to or greater than 10?
N

Decide: is the reported value of pIC50 for "CNCc1nc2ccccc2c(-c2ccccc2)c1C(=O)NCc1cc(C(F)(F)F)cc(C(F)(F)F)c1" equal to or greater than 10?
Y
